experiment description: Mouse i.v. blood pharmacokinetic study
Assay type: in vivo, female CD-1 mice
recorded conditions: mouse, iv; blood; i.v. 1 mg kg^−1; 2% DMSO/98% H2O; female CD-1 mice
measure name: Cmax (µM)

I: O=C(NCS(=O)(=O)O)Nc1ccccc1-c1nc2ccccc2s1
II: O=C(NCS(=O)(=O)O)Nc1ccc(C(F)(F)F)cc1
q: Lower value of Cmax belongs to which: I or II ? Reply with the label of the item you choose.
a: I

* * *

experiment description: Satellite terminal tissue sampling after i.v. dosing
Format: in vivo
recorded conditions: CD-1, mouse, liver, iv, 1 mg kg^−1; 0.5 h post i.v. dosing; n = 3 mice; read-out: Concentration of SSA in liver
measure name: concentration at 0.5 h (nM)

a: O=C(NCS(=O)(=O)O)Nc1ccc(C(F)(F)F)cc1
b: O=C(NCS(=O)(=O)O)Nc1ccccc1-c1nc2ccccc2s1
q: // compare measured concentration at 0.5 h between a and b ; output the lower one When you have decided, please share the label of that item.
a: a

* * *

experiment description: Mouse i.v. blood pharmacokinetic study
Type: in vivo, female CD-1 mice
recorded conditions: mouse, iv; blood; i.v. 1 mg kg^−1; female CD-1 mice
measure name: AUC(0-t) (µM·h)

A: O=C(NCS(=O)(=O)O)Nc1ccccc1-c1nc2ccccc2s1 [SSA 5]
B: O=C(NCS(=O)(=O)O)Nc1ccc(C(F)(F)F)cc1 [SSA 3]
q: Pick the one with the larger AUC(0-t): A vs B # respond with the chosen item's label
a: B
(B: 2.28 µM·h, A: 1.45 µM·h)

* * *

experiment description: Mouse plasma protein binding (rapid equilibrium dialysis) with plasma stability
Format: in vitro ADME
recorded conditions: mouse, plasma
measure name: PPB class

Worked examples, 4 compounds total:
chemical_structure=O=C(NCS(=O)(=O)O)Nc1ccccc1-c1nc2ccccc2s1 val="very high"
chemical_structure=Cc1ccc2nc(-c3ccc(NC(=O)NCCCS(=O)(=O)O)cc3)sc2c1 val="very high"
chemical_structure=O=C(O)CNC(=O)Nc1ccc(C(F)(F)F)cc1 val=low
chemical_structure=Cc1ccc2nc(-c3ccc(NC(=O)NCS(=O)(=O)O)cc3)sc2c1 val="very high"

Then this compound:
q: Name the recorded PPB class for `O=C(NCS(=O)(=O)O)Nc1ccc(C(F)(F)F)cc1` .
a: low

* * *

Test system: MRSA USA300
experiment description: MIC50 determination and initial screening from OD600 growth curves, MRSA USA300
Assay type: cell-based, Staphylococcus aureus
recorded conditions: Staphylococcus aureus, 15 h, Table S3, conversion of the mM values of Table 1; MRSA USA300; after 900 mins
Description: The antimicrobial activity of SSAs 1–14 was established against both a model Gram-positive, clinically relevant methicillin resistant Staphylococcus aureus (MRSA), and a model Gram-negative, E. coli bacteria, Table 1. […] Preparation of 96 well microplate for screening: 20 mM solutions of each compound to be tested were made up using 5 % ethanol. […] These were incubated for 20 hours in a plate reader, with optical density readings being taken at 600 nm every 15 minutes. […]
measure name: MIC50 (µg/mL)

# annotated cases, reported MIC50 shown
molecule="O=C(O)CNC(=O)Nc1ccc(C(F)(F)F)cc1 [SSA 4]" val=574
molecule="O=C(NCS(=O)(=O)O)Nc1ccc(C(F)(F)F)cc1 [SSA 1]" val=248
molecule="Cc1ccc2nc(-c3ccc(NC(=O)NCS(=O)(=O)O)cc3)sc2c1 [SSA 6]" val=576
molecule="CCCCNC(=O)NCS(=O)(=O)O [SSA 13]" val=1990
molecule="Cc1ccc2nc(-c3ccc(NC(=O)NCCCS(=O)(=O)O)cc3)sc2c1 [SSA 10]" val=382
molecule="Cc1ccc2nc(-c3ccc(NC(=O)NCCC(=O)O)cc3)sc2c1 [SSA 9]" val=760
molecule="O=C(NCS(=O)(=O)O)Nc1ccccc1-c1nc2ccccc2s1 [SSA 5]" val=599

a: O=C(NCS(=O)(=O)O)Nc1ccc(-c2nc3ccccc3s2)cc1 [SSA 8]
b: CCCCNC(=S)NCS(=O)(=O)O [SSA 14]
q: Which of the two items, a and b , has the greater recorded MIC50? // respond with label for picked entry
a: b
(b: 1440 µg/mL, a: 696 µg/mL)

The reported measurements were obtained from paper PMC9400670.
